This collection of values is drawn from ChEMBL document CHEMBL4665705.

Assay: Fraction unbound in Beagle dog blood measured after 4 hrs by LC-MS/MS analysis
Type: ADME, tissue-based, Canis lupus familiaris
Experimental readout: fraction unbound at 4 h
Answer using only a numeral; do not append any unit.

# query: fraction unbound at 4 h of entry CC(=O)Nc1c(F)cc(C(=O)N[C@H]2CC[C@H](O)CC2)cc1O[C@@H](C)c1ccccc1 [GSK046]
0.33

====

Experiment: Volume of distribution at steady state in Beagle dog at 0.5 mg/kg, iv administered as 1 hr infusion on day 1 and day 7 to achieve a target dose of 1 mg/kg by LC-MS/MS analysis
Format: ADME, organism-based, Canis lupus familiaris
Conditions: in vivo, dose 0.5-1 mg/kg, time 7 day, read-out: Vdss
Experimental readout: Vd
Could you write the number and then its unit?

# query: Vd of entry CC(=O)Nc1c(F)cc(C(=O)N[C@H]2CC[C@H](O)CC2)cc1O[C@@H](C)c1ccccc1 [GSK046]
0.91 L/kg
